From: ChEMBL document CHEMBL5136972

Test system: SARS-CoV-2
Test: Antiviral activity against SARS CoV-2 infected in human Huh-7 cells measured up to 72 hrs by plaque assay
Assay type: functional, organism-based
Settings: Severe acute respiratory syndrome coronavirus 2, Huh-7, 72 h
OBSERVED_PROPERTY: EC50 (nM)
Numeric answer only, unit nM assumed.

[Q] I am curious: what EC50 value has been reported for CCC(CC)COC(=O)[C@H](C)N[P@](=O)(OC[C@H]1O[C@@](C#N)(c2ccc3c(N)ncnn23)[C@H](O)[C@@H]1O)Oc1ccccc1 ?
[A] 3

---

compounds and their reported CC50
Assay: Cytotoxicity against African green monkey Vero E6 cells by CCK-8 assay
Assay type: toxicity, cell-based, Vero C1008
Details: chlorocebus sabaeus

Below, each entry is followed by its recorded CC50 result.
# COMPOUND, CC50
rows = [
    ("O=C[C@H](C[C@@H]1CCNC1=O)NC(=O)[C@H](Cc1cccc(F)c1)NC(=O)c1cc2ccccc2[nH]1", "> 100 µM"),
    ("CC(C)C[C@H](NC(=O)OCc1ccccc1)C(=O)N[C@@H](C[C@@H]1CCNC1=O)C(O)S(=O)(=O)O (stereo partly drawn)", "> 100 µM"),
]

Now for another entry.
[Q] I am curious: what CC50 value has been reported for O=C[C@H](C[C@@H]1CCNC1=O)NC(=O)[C@H](CC1CC1)NC(=O)c1cc2ccccc2[nH]1 ?
[A] > 100 µM
